- TARGET_SYSTEM: polypeptide SEQ ID NO: 8 in which X1, X2, X3 and X4 each represents a lysine (Mus musculus, UniProt O09114)
- Construct: made in house; host or cells: chemical peptide synthesis (Fmoc)
- Sequence (O09114 148-173 limits assumed): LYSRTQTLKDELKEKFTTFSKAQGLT
- ASSAY_PROCEDURE: HPLC test of % fixing of test compound on polypeptide
- Type: binding
- PARTICULARS: Example 4; twice 0.5 mM polypeptide, 5 mM test compound, TRIS-HCl 100 mM; 'Fixing' = not quantifiable
Reported % fixing (mean), SEQ ID NO: 8 (X1-X4 lysine) is given for each of the following compounds.
Please state the figure in %; there is no need to write the unit.

Look over these answered cases.
COMPOUND | REPORTED_MEASUREMENT
Oc1ccc(O)cc1 [HQ, 1,4-hydroquinone] | 100
O=C/C=C/c1ccccc1 [CA, cinnamic aldehyde] | 30
O=CCCCC=O [GA, glutaraldehyde] | 50
CC(C)=CCCC(C)=CC=O [Cal, citral] | 70

Proceeding to the next compound to report its % fixing (mean), SEQ ID NO: 8 (X1-X4 lysine).
input: Report % fixing (mean), SEQ ID NO: 8 (X1-X4 lysine) for CC(C=O)Cc1ccc(C(C)(C)C)cc1 (stereo not drawn) [Li, lilial] please.
output: 0
